Test Target: panel of more than 300 wild-type and mutant kinases (313 kinase panel) (Homo sapiens, UniProt P51813)
Procedure Summary: Kinase profiling in a biochemical assay panel (mobility shift assays and ELISA), %-inhibition at 1 μM; selectivity entropy
Conditions Used: kinase BMX; 1 μM compound
Readout Label: %-inhibition, BMX (%)
Form entry: value (%) — number only.

Q: %-inhibition, BMX lookup needed for CO[C@H]1C[C@@H]2CC[C@@H](C)[C@@](O)(O2)C(=O)C(=O)N2CCCC[C@H]2C(=O)O[C@H]([C@H](C)C[C@@H]2CC[C@@H](OC(=O)C(C)(CO)CO)[C@H](OC)C2)CC(=O)[C@H](C)/C=C(\C)[C@@H](O)[C@@H](OC)C(=O)[C@H](C)C[C@H](C)/C=C/C=C/C=C/1C [temsirolimus] , thanks.
Result: -7

Q: Need %-inhibition, BMX of N#CC[C@H](C1CCCC1)n1cc(-c2ncnc3[nH]ccc23)cn1 [ruxolitinib] , thanks.
Result: 6.6

Q: Please give the measured %-inhibition, BMX for this molecule: CNC(=O)c1cc(Oc2ccc(NC(=O)Nc3ccc(Cl)c(C(F)(F)F)c3)c(F)c2)ccn1 [regorafenib]
Result: -1.77

Q: // %-inhibition, BMX lookup, key: CO[C@H]1C[C@@H]2CC[C@@H](C)[C@@](O)(O2)C(=O)C(=O)N2CCCC[C@H]2C(=O)O[C@H]([C@H](C)C[C@@H]2CC[C@@H](OCCO)[C@H](OC)C2)CC(=O)[C@H](C)/C=C(\C)[C@@H](O)[C@@H](OC)C(=O)[C@H](C)C[C@H](C)/C=C/C=C/C=C/1C [everolimus]
Result: -5.3

Q: Sample CC(=O)Nc1cccc(-n2c(=O)n(C3CC3)c(=O)c3c(Nc4ccc(I)cc4F)n(C)c(=O)c(C)c32)c1 [trametinib] — what was its %-inhibition, BMX?
Result: -3.22

* * *

Test Target: panel of more than 300 wild-type and mutant kinases (313 kinase panel) (Homo sapiens, UniProt P07949, G691S)
Procedure Summary: Kinase profiling in a biochemical assay panel (mobility shift assays and ELISA), %-inhibition at 1 μM; selectivity entropy
Conditions Used: kinase RET(G691S); 1 μM
I'd be grateful if you could share measured %-inhibition of RET(G691S) for these entries.
Expressed in %, but write only the number.

Q: Can you share its %-inhibition of RET(G691S)? I mean this compound: `CNC(=O)c1cc(Oc2ccc(NC(=O)Nc3ccc(Cl)c(C(F)(F)F)c3)c(F)c2)ccn1`
Result: 103

Q: Which %-inhibition of RET(G691S) value belongs to `Cc1ccc(C(=O)Nc2ccc(CN3CCN(C)CC3)c(C(F)(F)F)c2)cc1C#Cc1cnc2cccnn12` ?
Result: 102

Q: Which value of %-inhibition of RET(G691S) has been reported for `CC(=O)Nc1cccc(-n2c(=O)n(C3CC3)c(=O)c3c(Nc4ccc(I)cc4F)n(C)c(=O)c(C)c32)c1` in the records?
Result: -1.48

Q: Can you share its %-inhibition of RET(G691S)? I mean this compound: `CO[C@H]1C[C@@H]2CC[C@@H](C)[C@@](O)(O2)C(=O)C(=O)N2CCCC[C@H]2C(=O)O[C@H]([C@H](C)C[C@@H]2CC[C@@H](OC(=O)C(C)(CO)CO)[C@H](OC)C2)CC(=O)[C@H](C)/C=C(\C)[C@@H](O)[C@@H](OC)C(=O)[C@H](C)C[C@H](C)/C=C/C=C/C=C/1C`
Result: -6

Q: Name the reported %-inhibition of RET(G691S) value associated with the compound `O=S(=O)(c1cccc2cnccc12)N1CCCNCC1`
Result: -0.0546

Q: Fill in: %-inhibition of RET(G691S) of `COc1cc(Nc2c(C#N)cnc3cc(OCCCN4CCN(C)CC4)c(OC)cc23)c(Cl)cc1Cl` is ___
Result: 94

* * *

Test Target: panel of more than 300 wild-type and mutant kinases (313 kinase panel) (Homo sapiens, UniProt Q16816)
Procedure Summary: Kinase profiling in a biochemical assay panel (mobility shift assays and ELISA), %-inhibition at 1 μM; selectivity entropy
Conditions Used: kinase PHKG1; 1 μM
Readout Label: %-inhibition of PHKG1 (%)
Report as a plain number; the unit % is understood.

Q: For the molecule COc1cc2nccc(Oc3ccc(NC(=O)C4(C(=O)Nc5ccc(F)cc5)CC4)cc3)c2cc1OC [cabozantinib] , what %-inhibition of PHKG1 is on record?
Result: 53

Q: Could you tell me which %-inhibition of PHKG1 is on file for CC(C)(C)c1nc(-c2cccc(NS(=O)(=O)c3c(F)cccc3F)c2F)c(-c2ccnc(N)n2)s1 [dabrafenib] ?
Result: -0.59

Q: Fill in: %-inhibition of PHKG1 of O=S(=O)(c1cccc2cnccc12)N1CCCNCC1 [fasudil] is ___
Result: 2.6

* * *

Test Target: panel of more than 300 wild-type and mutant kinases (313 kinase panel) (Homo sapiens)
Procedure Summary: Kinase profiling in a biochemical assay panel (mobility shift assays and ELISA), %-inhibition at 1 μM; selectivity entropy
Conditions Used: kinase PGK; 1 μM
Exercise: for every item that follows, state its recorded %-inhibition of PGK.
// units = %; emit number, no label

Q: Given the molecule `CC(=O)Nc1cccc(-n2c(=O)n(C3CC3)c(=O)c3c(Nc4ccc(I)cc4F)n(C)c(=O)c(C)c32)c1` , what is its reported %-inhibition of PGK?
Result: -1.31

Q: // query %-inhibition of PGK value for entry `Cc1ccc(Nc2nccc(N(C)c3ccc4c(C)n(C)nc4c3)n2)cc1S(N)(=O)=O`
Result: -3

Q: Param item = `CNC(=O)c1cc(Oc2ccc(NC(=O)Nc3ccc(Cl)c(C(F)(F)F)c3)c(F)c2)ccn1` ; retrieve measured %-inhibition of PGK.
Result: -7

Q: Please look up its %-inhibition of PGK: `N#CC[C@H](C1CCCC1)n1cc(-c2ncnc3[nH]ccc23)cn1`
Result: 14

* * *

Task for the reader: assign each of the following molecules its reported %-inhibition of MRCKα.
Test Target: panel of more than 300 wild-type and mutant kinases (313 kinase panel) (Homo sapiens, UniProt Q5VT25)
Procedure Summary: Kinase profiling in a biochemical assay panel (mobility shift assays and ELISA), %-inhibition at 1 μM; selectivity entropy
Conditions Used: kinase MRCKα; 1 μM
Please reply with the bare figure in % and do not write the unit itself.

Q: %-inhibition of MRCKα lookup needed for `O=S(=O)(c1cccc2cnccc12)N1CCCNCC1` , thanks.
Result: -2.54

Q: Look at this molecule and give its reported %-inhibition of MRCKα. `CC(=O)Nc1cccc(-n2c(=O)n(C3CC3)c(=O)c3c(Nc4ccc(I)cc4F)n(C)c(=O)c(C)c32)c1`
Result: -0.565

Q: What value of measured %-inhibition of MRCKα is listed for `C[C@@H](Oc1cc(-c2cnn(C3CCNCC3)c2)cnc1N)c1c(Cl)ccc(F)c1Cl` ?
Result: -8

Q: What value of measured %-inhibition of MRCKα is listed for `CNC(=O)c1cc(Oc2ccc(NC(=O)Nc3ccc(Cl)c(C(F)(F)F)c3)c(F)c2)ccn1` ?
Result: -5

* * *

Test Target: panel of more than 300 wild-type and mutant kinases (313 kinase panel) (Homo sapiens, UniProt P45985)
Procedure Summary: Kinase profiling in a biochemical assay panel (mobility shift assays and ELISA), %-inhibition at 1 μM; selectivity entropy
Conditions Used: kinase MAP2K4; compound at 1 μM
Assignment: determine reported %-inhibition of MAP2K4 for the given compounds.
Form entry: value (%) — number only.

Q: # lookup: %-inhibition of MAP2K4 of `COc1cc2c(Nc3ccc(Br)cc3F)ncnc2cc1OCC1CCN(C)CC1`
Result: -2.77

Q: Fill in the blank: the reported %-inhibition of MAP2K4 of `O=S(=O)(c1cccc2cnccc12)N1CCCNCC1` is ____.
Result: -5

Q: Could you tell me which %-inhibition of MAP2K4 is on file for COc1cc2nccc(Oc3ccc(NC(=O)C4(C(=O)Nc5ccc(F)cc5)CC4)cc3)c2cc1OC [cabozantinib] ?
Result: -0.379

Q: Returns the measured %-inhibition of MAP2K4 for the input compound. Input: `Cc1cn(-c2cc(NC(=O)c3ccc(C)c(Nc4nccc(-c5cccnc5)n4)c3)cc(C(F)(F)F)c2)cn1`
Result: -4.54

Q: Form field: reported %-inhibition of MAP2K4 of `CC(C)(C)c1nc(-c2cccc(NS(=O)(=O)c3c(F)cccc3F)c2F)c(-c2ccnc(N)n2)s1`
Result: -3

Q: Please report the recorded %-inhibition of MAP2K4 for `N#CC[C@H](C1CCCC1)n1cc(-c2ncnc3[nH]ccc23)cn1` .
Result: 10

Q: Consider the compound shown here: `CO[C@H]1C[C@@H]2CC[C@@H](C)[C@@](O)(O2)C(=O)C(=O)N2CCCC[C@H]2C(=O)O[C@H]([C@H](C)C[C@@H]2CC[C@@H](OCCO)[C@H](OC)C2)CC(=O)[C@H](C)/C=C(\C)[C@@H](O)[C@@H](OC)C(=O)[C@H](C)C[C@H](C)/C=C/C=C/C=C/1C` What is its recorded %-inhibition of MAP2K4?
Result: 1.55
